Below are EC50 values recorded for Glucocorticoid receptor (Homo sapiens, UniProt P04150).
Just the number please, in nM, no unit attached.

Would you please look over these solved cases?
[[record]]
compound_smiles = "CC(C)CCN1C[C@@H]2C[C@H]3[C@@H]4C[C@H](F)C5=CC(=O)C=C[C@]5(C)[C@@]4(F)[C@@H](O)C[C@]3(C)[C@]2(C(=O)SCF)C1"
target_under_test = "Glucocorticoid receptor (Homo sapiens, UniProt P04150)"
property_measured = "EC50"
unit_tag = "nM"
data_value = 57

[[record]]
compound_smiles = "C[C@]12C=CC(=O)C=C1[C@@H](F)C[C@H]1[C@@H]3C[C@H]4CN(CC5CC5)C[C@@]4(C(=O)CO)[C@@]3(C)C[C@H](O)[C@@]12F"
target_under_test = "Glucocorticoid receptor (Homo sapiens, UniProt P04150)"
property_measured = "EC50"
unit_tag = "nM"
data_value = 15.2

[[record]]
compound_smiles = "C[C@]12C=CC(=O)C=C1[C@@H](F)C[C@H]1[C@@H]3C[C@H]4CN(Cc5cccc(Cl)c5)C[C@@]4(C(=O)OCF)[C@@]3(C)C[C@H](O)[C@@]12F"
target_under_test = "Glucocorticoid receptor (Homo sapiens, UniProt P04150)"
property_measured = "EC50"
unit_tag = "nM"
data_value = 20.8

[[record]]
compound_smiles = "C[C@]12C=CC(=O)C=C1[C@@H](F)C[C@H]1[C@@H]3C[C@H]4CN(Cc5ccccc5)C[C@@]4(C(=O)NCc4ccccc4)[C@@]3(C)C[C@H](O)[C@@]12F"
target_under_test = "Glucocorticoid receptor (Homo sapiens, UniProt P04150)"
property_measured = "EC50"
unit_tag = "nM"
data_value = 50

[[record]]
compound_smiles = "C[C@]12C=CC(=O)C=C1[C@@H](F)C[C@H]1[C@@H]3C[C@H]4CN(Cc5cccnc5)C[C@@]4(C(=O)CO)[C@@]3(C)C[C@H](O)[C@@]12F"
target_under_test = "Glucocorticoid receptor (Homo sapiens, UniProt P04150)"
property_measured = "EC50"
unit_tag = "nM"
data_value = 63.9


Moving on to another compound below.
// query Identify EC50 associated with the compound `C[C@]12C=CC(=O)C=C1[C@@H](F)C[C@H]1[C@@H]3C[C@H]4CN(Cc5ccc(CSc6ccc(O)cc6)cc5)C[C@@]4(C(=O)CO)[C@@]3(C)C[C@H](O)[C@@]12F`
// result 2.1
